# System: A549
# assay.remarks: NCI tumour cell line growth inhibition, 48 h
Active and inactive are the calls of the source. No stated cut-off is given here; in the data, active = GI50 up to about 1.1 µM and inactive = higher.
Exercise: for every item that follows, state its recorded GI50.

Asked: Give a short answer stating reported GI50 for c1ccc2c(c1)ncn2C1CCCCO1 (configuration not stated) .
Given back: > 100 µM (inactive)

Asked: Give a short answer stating reported GI50 for `CC(=O)N(C(C)=O)n1c(Cc2ccc(Cl)cc2)n[nH]c1=O` .
Given back: > 100 µM (inactive)

Asked: Give a short answer stating reported GI50 for `CC(C)c1ccc(/C=C2/C=C(c3ccc4ccccc4c3)OC2=O)cc1` .
Given back: > 89.7 µM (inactive)

Asked: Give a short answer stating reported GI50 for COc1cc2c(cc1OC)C(SC)C(=O)N(Cc1cccc(OC)c1OC)CC2 (configuration not stated) .
Given back: 1.73 µM (inactive)

Asked: Give a short answer stating reported GI50 for `Cc1n[nH]c(=O)n1C1CCCC1` .
Given back: > 100 µM (inactive)

Asked: Give a short answer stating reported GI50 for `Oc1ccc(-c2nc3ccccc3s2)cc1` .
Given back: 41.3 µM (inactive)

Asked: Give a short answer stating reported GI50 for `O=C(/C=C/c1ccccc1Cl)c1ccccc1Cl` .
Given back: 30 µM (inactive)

Asked: Give a short answer stating reported GI50 for `CCNC(=O)Nc1ccccn1` .
Given back: > 100 µM (inactive)

Asked: Give a short answer stating reported GI50 for `OCCCNCc1ccccn1` .
Given back: > 100 µM (inactive)

Asked: Give a short answer stating reported GI50 for `O=c1c(Nc2ccccc2)cn(CCOc2ccccc2)c(=O)n1CCOc1ccccc1` .
Given back: 91.8 µM (inactive)

Asked: Give a short answer stating reported GI50 for Cc1cccc(C)c1NC(=O)C1C(=O)N(c2c(C)cccc2C)C(=O)/C1=N\NC(N)=S (configuration not stated) .
Given back: > 100 µM (inactive)

Asked: Give a short answer stating reported GI50 for `CC(=O)Oc1ccc(/C=C/C(=O)NCCOC(=O)/C=C/c2ccc(OC(C)=O)c(OC(C)=O)c2)cc1OC(C)=O` .
Given back: 57.5 µM (inactive)

---

Exercise: for every item that follows, state its recorded GI50.
# System: SNB-78
# assay.remarks: NCI tumour cell line growth inhibition, 48 h
Activity calls are given as the source filed them. No stated cut-off is given here; in the data, active = GI50 up to about 1.1 µM and inactive = higher.

Asked: Give a short answer stating reported GI50 for `CC12CCC(CC1)C(C)(C)O2` .
Given back: 67.6 µM (inactive)

Asked: Give a short answer stating reported GI50 for `NC1=C(NC(=O)Cc2ccc(F)cc2)C(=O)c2ccccc2C1=O` .
Given back: 26.1 µM (inactive)

Asked: Give a short answer stating reported GI50 for `NC1=NC(=O)/C(=C2\CCNC(=O)c3[nH]c(Br)cc32)N1` .
Given back: 86.3 µM (inactive)

Asked: Give a short answer stating reported GI50 for `Cc1ccccc1-c1c(N)nc(N)nc1C(=O)Nc1nccs1` .
Given back: > 100 µM (inactive)

Asked: Give a short answer stating reported GI50 for `COc1ccc(-c2c(C3=NCCCN3)nnn2-c2ccc([N+](=O)[O-])cc2)cc1` .
Given back: > 100 µM (inactive)

Asked: Give a short answer stating reported GI50 for `CC1=C(C(=O)Nc2ccccc2)C(c2cc(Cl)cc(Cl)c2)C(C(=O)Nc2ccccc2)=C(C)N1` .
Given back: 17.1 µM (inactive)

Asked: Give a short answer stating reported GI50 for `COc1ccc2c(c1)[n+]([O-])c(-c1ccc(C)cc1)c(N)[n+]2[O-]` .
Given back: 70.5 µM (inactive)

Asked: Give a short answer stating reported GI50 for CSc1ccc(C2OC(=O)c3ccccc32)c2ccccc12 (stereo not given) .
Given back: 46.5 µM (inactive)

Asked: Give a short answer stating reported GI50 for COC(=O)C(C(=O)C(=O)Nc1cccc(C)c1)C1=NC(N)SS1 (stereo not given) .
Given back: > 100 µM (inactive)

Asked: Give a short answer stating reported GI50 for Nc1ncnc2c(C3OC(CO)C(O)C3O)scc12 (stereo not given) .
Given back: 4.31 µM (inactive)

---

# System: SK-MEL-28
# assay.remarks: NCI tumour cell line growth inhibition, 48 h
Calls of active or inactive are those of the source. Rule as the data show it: active = GI50 up to about 1.1 µM and inactive = higher.
assay.readout: GI50

Asked: Give a short answer stating reported GI50 for CC(C)C(NCc1c2ccccc2nc2ccccc12)C(=O)O (stereo unspecified) .
Given back: 87.5 µM (inactive)

Asked: Give a short answer stating reported GI50 for C=C[C@@]1(C)CC2CC[C@]3(C)C(C)=CC(=O)CC3[C@]2(C)CC1O (stereo partly specified) .
Given back: > 100 µM (inactive)

Asked: Give a short answer stating reported GI50 for `Oc1cc(O)cc(/C=C/c2ccc(O)c(O)c2)c1` .
Given back: 49.9 µM (inactive)

Asked: Give a short answer stating reported GI50 for `O=C1C=C2SC3C[C@@]24CC1[N+]1=c2c4c(c(O)c4c2=C(C=N4)CC1)N3` .
Given back: 1.94 µM (inactive)

Asked: Give a short answer stating reported GI50 for `Nc1cc(N)cc(Cc2ccccc2)c1` .
Given back: > 100 µM (inactive)

Asked: Give a short answer stating reported GI50 for N#CC1C(C#N)C2(c3ccccc3)C(c3ccccc3)=NN(c3ccccc3)CC12 (stereo unspecified) .
Given back: > 100 µM (inactive)

Asked: Give a short answer stating reported GI50 for `C/C(=N/OCCC(=O)O)C1CC1` .
Given back: > 100 µM (inactive)

Asked: Give a short answer stating reported GI50 for COc1cccc(C2CC(C)(N3CCCC3)Oc3cc4c(cc32)OCO4)c1O (stereo unspecified) .
Given back: 22.5 µM (inactive)

Asked: Give a short answer stating reported GI50 for `O=c1cc(C(F)(F)F)c2cc3c(cc2o1)NCCC3` .
Given back: > 100 µM (inactive)

Asked: Give a short answer stating reported GI50 for Nc1cc(C(=O)NC2C3CC4CC(C3)CC2C4)nc(S)n1 (stereo unspecified) .
Given back: > 100 µM (inactive)

Asked: Give a short answer stating reported GI50 for `CCOC(=O)c1nc2ccc([N+](=O)[O-])cc2c2c1CCO2` .
Given back: > 100 µM (inactive)

---

# Tested on: OVCAR-4
# assay.remarks: NCI tumour cell line growth inhibition, 48 h
The source made the active and inactive calls. No stated cut-off is given here; in the data, active = GI50 up to about 1.1 µM and inactive = higher.
Exercise: for every item that follows, state its recorded GI50.

Asked: Give a short answer stating reported GI50 for COC(=O)[C@@]12C3=NO[C@]1(C(=O)OC)C(O[Si](C)(C)C(C)(C)C)[C@H]1OC(C)(C)O[C@H]1[C@@H]2C(OCc1ccccc1)CC3 (stereo not given in full) .
Given back: 22.3 µM (inactive)

Asked: Give a short answer stating reported GI50 for CN1C(=O)CC2CCC(=O)N2c2cccnc21 (stereo not given) .
Given back: > 100 µM (inactive)

Asked: Give a short answer stating reported GI50 for O=[N+]([O-])c1cccc(C2N3CCCCC3[C@@H]3c4[nH]c5ccccc5c4CCN23)c1 (stereo not given in full) .
Given back: 16 µM (inactive)

Asked: Give a short answer stating reported GI50 for C=C(C)[C@H]1CC[C@@]2(C)C(C1)[C@H](C)CC[C@@H]2O (stereo not given in full) .
Given back: > 100 µM (inactive)

Asked: Give a short answer stating reported GI50 for O=C(Nc1cc(Cl)ccc1Cl)C(=O)C(c1cnc2ccccc2n1)[N+](=O)[O-] (stereo not given) .
Given back: > 100 µM (inactive)

---

# Tested on: MCF7
# assay.remarks: NCI tumour cell line growth inhibition, 48 h
Calls of active or inactive are those of the source. Cut-off read from the data, not from the text of the source: active = GI50 up to about 1.1 µM and inactive = higher. Where a SMILES comes first, the peptide text is derived from it. Square brackets hold non-standard residues; d marks the D form. Peptide text beside a SMILES is read from it. [ ]: non-standard residue; d: D form. The star is where a group is joined. * marks the point of attachment. X26 = COC1=CC(=O)N(C(=O)[C@@H](O*)C(C)C)[C@H]1Cc1ccccc1; Phe(4-NO2) = N[CH](Cc1ccc([N+](=O)[O-])cc1)C(=O)O; NMeL = CN[C@@H](CC(C)C)C(=O)O; Hexanoyl = CCCCCC(=O)*; Boc = CC(C)(C)OC(=O)*; OtBu = CC(C)(C)O*
Exercise: for every item that follows, state its recorded GI50.

Asked: Give a short answer stating reported GI50 for c1ccc2c(c1)ncn2C1CCCCO1 (stereo not drawn) .
Given back: > 100 µM (inactive)

Asked: Give a short answer stating reported GI50 for `CCOC(=O)c1sc2nc(SC)nc(Nc3ccc4c(c3)OCCO4)c2c1N` .
Given back: 10.5 µM (inactive)

Asked: Give a short answer stating reported GI50 for `Cc1ccc(S(=O)(=O)Nn2c(C)cc3ccc(S(=O)(=O)Nc4ccccc4[N+](=O)[O-])cc3c2=O)cc1` .
Given back: 99.3 µM (inactive)

Asked: Give a short answer stating reported GI50 for `CC1(C)OC(=O)C(C#N)=C1C[n+]1ccccc1` .
Given back: > 10 µM (inactive)

Asked: Give a short answer stating reported GI50 for `COC(=O)c1c2c(cc3c1CC1(Cc4cc5c(cc4C1)CCCC5)C3)CCCC2` .
Given back: > 100 µM (inactive)

Asked: Give a short answer stating reported GI50 for `O=C1Nc2nnc(S)n2NC12c1ccccc1-c1ccccc12` .
Given back: 33.2 µM (inactive)

Asked: Give a short answer stating reported GI50 for C=CCOc1cccc(C2(O)c3ccccc3C3=NCCCN32)c1 (stereo not drawn) .
Given back: 16.8 µM (inactive)

Asked: Give a short answer stating reported GI50 for `N#CC[N+]1(Cc2ccccn2)CCCC1.O=S(=O)([O-])c1ccccc1` .
Given back: > 100 µM (inactive)

Asked: Give a short answer stating reported GI50 for CC(=O)N1C(C(=O)NNc2ccccc2)CSC1c1ccccc1 (stereo not drawn) .
Given back: > 100 µM (inactive)

Asked: Give a short answer stating reported GI50 for `N=C(N)SCc1cc(Cl)cc(Cl)c1O` .
Given back: 25.2 µM (inactive)

Asked: Give a short answer stating reported GI50 for COC(=O)C(Cc1ccc([N+](=O)[O-])cc1)NC(=O)C(CC(=O)OC(C)(C)C)NC(=O)OC(C)(C)C (stereo not drawn) (Boc-Asp(OtBu)-[Phe(4-NO2)]-OMe; configuration not given here) .
Given back: > 100 µM (inactive)

Asked: Give a short answer stating reported GI50 for Cc1ccc2c(c1)CC1(Cc3cccc(C)c3C1=O)C2=O (stereo not drawn) .
Given back: > 10 µM (inactive)

Asked: Give a short answer stating reported GI50 for `COC(=O)/C(=C(/C)c1ccco1)P(=O)(OC)OC` .
Given back: > 100 µM (inactive)

Asked: Give a short answer stating reported GI50 for COC(=O)C12OC3CO[Si](C(C)C)(C(C)C)O[Si](C(C)C)(C(C)C)OC3C1Oc1nc(=O)ccn12 (stereo not drawn) .
Given back: 16 µM (inactive)

Asked: Give a short answer stating reported GI50 for `CC[C@@H]1C[C@@H](O)[C@@H]2[C@H](O)[C@H](O)CN2C1` .
Given back: > 100 µM (inactive)

Asked: Give a short answer stating reported GI50 for `O=C(c1ccccc1)c1ccc(N2C(=O)/C(=C/c3ccccc3S)N=C2c2ccccc2)c(N2C(=O)/C(=C/c3ccccc3S)N=C2c2ccccc2)c1` .
Given back: 45.6 µM (inactive)

Asked: Give a short answer stating reported GI50 for `CCCCN1C(=O)c2c(-c3sccc3N)sc(-c3sccc3N)c2C1=O` .
Given back: 11.2 µM (inactive)

Asked: Give a short answer stating reported GI50 for CCCCCC(=O)N[C@H](C(=O)N[C@H](C(=O)N(C)[C@@H](CC(C)C)C(=O)N1CCC[C@H]1C(=O)N1CCC[C@H]1C(=O)O[C@H](C(=O)N1C(=O)C=C(OC)[C@@H]1Cc1ccccc1)C(C)C)C(C)C)C(C)C (Hexanoyl-VV[NMeL]PP-X26) .
Given back: 25.9 µM (inactive)

Numbers sourced from ChEMBL document CHEMBL1201862.
